- Tested on: SW-620
- PROTOCOL_TEXT: NCI tumour cell line growth inhibition, 48 h
Activity calls are given as the source filed them. No stated cut-off is given here; in the data, active = GI50 up to about 1.1 µM and inactive = higher.
# GI50 per record follows

Example entries begin here.
compound="COC(C(=O)NN)c1ccccc1 (stereo not given)" reported_endpoint=GI50 result="> 100 µM (inactive)"
compound="Cc1cc(C)c2nc3c(c(C(O)C4CCCCN4)c2c1)CC/C3=C\\c1ccc(Cl)cc1 (stereo not given)" reported_endpoint=GI50 result="55.3 µM (inactive)"
compound=COc1ccc(CC(=O)NCCc2ccc(OC)c(OC)c2)cc1Br reported_endpoint=GI50 result="> 100 µM (inactive)"
compound=O=c1c2cccnc2oc2c(Cl)cc(-c3nnn[nH]3)cc12 reported_endpoint=GI50 result="> 100 µM (inactive)"
compound=Cc1cccc(Cl)c1NC(=O)/C=C/c1ccccc1 reported_endpoint=GI50 result="> 100 µM (inactive)"
compound=COc1cc(C(=O)C/C(CCC(=O)Nc2ccc(Cl)cc2C)=N/NC(=O)C(N)=O)ccc1O reported_endpoint=GI50 result="> 100 µM (inactive)"

Looking up O=P(c1ccccc1)(c1ccccc1)N1O[C@@H](c2ccccc2)C=C[C@H]1c1ccccc1 , I see its GI50 listed as 12.9 µM (inactive)

Looking up CC(=O)Oc1c(-c2ccccc2)[nH]c2cc([N+](=O)[O-])c(/C(Cl)=C/c3ccccc3)cc12 , I see its GI50 listed as 8.89 µM (inactive)

Looking up O=C1C2=C(c3ccccc31)C(c1ccc(F)cc1)N1C(=O)CCSC1=N2 (stereo not given) , I see its GI50 listed as > 100 µM (inactive)

Looking up CC(=O)Oc1cc(OC(C)=O)c2c(c1)OC(c1ccc(OC(C)=O)c(OC(C)=O)c1)CC2=O (stereo not given) , I see its GI50 listed as 47.5 µM (inactive)

----------
- Tested on: HL-60
- PROTOCOL_TEXT: NCI tumour cell line growth inhibition, 48 h
Activity calls are given as the source filed them. Rule as the data show it: active = GI50 up to about 1.1 µM and inactive = higher.
REPORTED_ENDPOINT: GI50

Example entries begin here.
compound=c1ccc(/N=C(\N2CCCC2)N(CCN2CCCC2)c2ccccc2)cc1 result="2.91 µM (inactive)"
compound="CCOc1ccc2nc(NC(=O)C(=O)C(C(=O)c3ccccc3F)C3OC(=O)c4ccccc43)sc2c1 (stereo not given)" result="16.8 µM (inactive)"
compound=CCOC(=O)C(C(=O)OCC)C(NC(=O)Nc1cc(C(F)(F)F)ccc1OC)(C(F)(F)F)C(F)(F)F result="21.8 µM (inactive)"
compound=CN(NC(=O)c1cccs1)C1=NCCN1 result="> 100 µM (inactive)"

Consider the additional compound presented here.
Looking up CCN(CC)P1(=S)Oc2ccc3ccccc3c2-c2c(ccc3ccccc23)O1 , I see its GI50 listed as > 100 µM (inactive)

----------
- Test system: LOX IMVI
- PROTOCOL_TEXT: NCI tumour cell line growth inhibition, 48 h
Activity calls are given as the source filed them. No stated cut-off is given here; in the data, active = GI50 up to about 1.1 µM and inactive = higher.
Please reply with one of these outcomes: active, inactive

Some solved cases for reference:
compound=O=c1c2ccccc2n2cnc3ccc(NCCNCCO)c1c32 group=active
compound="CCCCC(=O)N/S(=N/C(=O)c1ccccc1)C(Cl)(Cl)Cl (centres undefined)" group=inactive
compound=O=C(Cn1c2c(c3ccccc31)CCCC2)N1CCCC1 group=inactive

Next item in the queue.
Data request: I would be grateful if you could indicate the recorded call for C/C(=C\CBr)CCC(Br)C(C)(C)Cl (centres undefined) .
Data returned: inactive

----------
- Tested on: MDA-MB-231
- PROTOCOL_TEXT: NCI tumour cell line growth inhibition, 48 h
Calls of active or inactive are those of the source. Rule as the data show it: active = GI50 up to about 1.1 µM and inactive = higher.
# GI50 per record follows

Looking up Cc1cc2nn(C3CCCO3)nc2cc1C (centres undefined) , I see its GI50 listed as > 100 µM (inactive)

Looking up CC(=O)O[C@H]1CC2C(C3CCC(C(C)CCC(=O)O)[C@]31C)[C@H](OC(C)=O)C[C@@H]1CC3(CC[C@]21C)OOC1(CC[C@]2(C)C4C[C@H](OC(C)=O)[C@]5(C)C(C(C)CCC(=O)O)CCC5C4[C@H](OC(C)=O)C[C@@H]2C1)OO3 (some centres undefined) , I see its GI50 listed as 2.01 µM (inactive)

Looking up CCOC(=O)/C(C(=S)NC)=C(/N)N1CCCC1 , I see its GI50 listed as > 100 µM (inactive)

Looking up O=c1cc(CO)n(CCc2c[nH]c3ccccc23)cc1O , I see its GI50 listed as 31.3 µM (inactive)

----------
- System: RPMI-8226
- PROTOCOL_TEXT: NCI tumour cell line growth inhibition, 48 h
Calls of active or inactive are those of the source. Cut-off read from the data, not from the text of the source: active = GI50 up to about 1.1 µM and inactive = higher.
Please reply with one of these outcomes: 1.0 for active, 0.0 for inactive

compound=CC(=O)NN/C=N/C(C#N)=C(\N)C#N group=0.0
compound="CCOC(=O)C1=C(C)N(Cc2ccccc2)C2(O)C=CC(=O)C3C(=O)N(c4ccccc4)C(=O)C132 (configuration not stated)" group=1.0
compound=Nc1ccc(S(=O)(=O)Nc2ccc(Nc3c4ccccc4nc4ccccc34)cc2)cc1 group=1.0
compound=O=C1Oc2ccccc2C(=O)/C1=C/N1C(=O)N/C(=C\c2ccccc2O)C1=O group=0.0
compound=O=C(Cn1c(=O)oc2ccccc21)N(c1ccccc1)c1ccccc1 group=0.0
compound="CCOP1(=O)OCC2OC(n3cnc4c(N)ncnc43)C(O)C2O1.c1ccccc1 (configuration not stated)" group=0.0
compound=S=c1nc(Nc2ccc(Cl)cc2)c2c3c(sc2[nH]1)CCCC3 group=0.0
compound="O=C1NC2(CCCCC2)C2CCCCC=C12 (configuration not stated)" group=0.0

Data request: I would be grateful if you could indicate the recorded call for C/C=N\n1c(C)n[nH]c1=O .
Data returned: 0.0

Data request: I would be grateful if you could indicate the recorded call for O=C(/C=C/c1c(O)ccc2ccccc12)c1ccc([N+](=O)[O-])cc1 .
Data returned: 0.0

Data request: I would be grateful if you could indicate the recorded call for CC1=NNC(=O)C1C1CC(c2c[nH]c3ccccc23)=NN(C(N)=O)C1=O (configuration not stated) .
Data returned: 0.0

Data request: I would be grateful if you could indicate the recorded call for CC(=O)NC1C(O)C(O)C(CO)OC1n1nc(SCc2ccccc2)c(=O)[nH]c1=O (configuration not stated) .
Data returned: 0.0

Data request: I would be grateful if you could indicate the recorded call for CC(C)C(/N=C/c1ccccc1O)C(=O)O (configuration not stated) .
Data returned: 0.0

Data request: I would be grateful if you could indicate the recorded call for Cc1nnc2n(c1=O)CCN2C .
Data returned: 0.0

Data request: I would be grateful if you could indicate the recorded call for COC(=O)[C@H](C)[C@@H]1CC[C@](C)(CCC2=C(C)CCCC2(C)C)OO1 .
Data returned: 0.0

Data request: I would be grateful if you could indicate the recorded call for O=S(=O)(O)c1cc(Nc2ccnc3ccccc23)c2c(S(=O)(=O)O)cc(S(=O)(=O)O)cc2c1 .
Data returned: 0.0

Data request: I would be grateful if you could indicate the recorded call for COC(C(=O)NN)c1ccccc1 (configuration not stated) .
Data returned: 0.0

Data request: I would be grateful if you could indicate the recorded call for COc1cc(C(=O)C/C(CCCC(=O)Nc2ccccc2[N+](=O)[O-])=N/NC(=O)c2cc3ccccc3cc2O)ccc1O .
Data returned: 0.0

Data request: I would be grateful if you could indicate the recorded call for CC(=O)C(=[N+]=[N-])C(=O)OC(C)(C)C#N .
Data returned: 0.0

Data request: I would be grateful if you could indicate the recorded call for COc1ccc2c3c(c(C(=O)c4ccccc4)oc13)CCC2 .
Data returned: 0.0

Data request: I would be grateful if you could indicate the recorded call for N#Cc1c(-c2ccccc2)c(/C=N/c2cccc(C(F)(F)F)c2)c(=O)n2c1[nH]c1ccccc12 .
Data returned: 0.0

Data request: I would be grateful if you could indicate the recorded call for Nc1nc(N)c(CCCCc2ccccc2)c(/C=C/c2ccc([N+](=O)[O-])cc2)n1 .
Data returned: 0.0

----------
- Test system: SF-268
- PROTOCOL_TEXT: NCI tumour cell line growth inhibition, 48 h
Active and inactive are the calls of the source. No stated cut-off is given here; in the data, active = GI50 up to about 1.1 µM and inactive = higher.
# GI50 per record follows

Example entries begin here.
compound="CC(C)CCCCCCCCCCCCC(=O)NCC(=O)NC1C(O)C(O)C(Nc2[nH]cnc3ncnc2-3)OC1C(O)CO (stereo unspecified)" reported_endpoint=GI50 result="0.00359 µM (active)"
compound="COc1cc(C2SC(=N)Nc3c2c(C)nn3C(=O)Cc2ccccc2)ccc1O (stereo unspecified)" reported_endpoint=GI50 result="> 100 µM (inactive)"
compound="O=C1C2=C(c3ccccc31)C(c1ccc(F)cc1)N1C(=O)CCSC1=N2 (stereo unspecified)" reported_endpoint=GI50 result="> 100 µM (inactive)"
compound=CN(C(=O)Cc1ccc(Cl)c(Cl)c1)[C@H]1CCCC[C@@H]1[N+]1(C)CCCC1 reported_endpoint=GI50 result="> 100 µM (inactive)"
compound="CCOc1ccc(/N=N/C2C(=O)N(C(=O)CC(=O)Nc3ccc(C)cc3)N=C2C)cc1 (stereo unspecified)" reported_endpoint=GI50 result="22.3 µM (inactive)"
compound="C=C1C(=O)OC2CC3(C)OC3CC/C(C)=C/C(OC(C)=O)C12 (stereo unspecified)" reported_endpoint=GI50 result="17 µM (inactive)"
compound=Cn1c2ccccc2n2c3nc4ccccc4nc3c(C#N)c12 reported_endpoint=GI50 result="81.3 µM (inactive)"
compound="C=C1C(=O)OC2CCCCC3OC3C12 (stereo unspecified)" reported_endpoint=GI50 result="13.8 µM (inactive)"
compound="COC(=O)[C@@]12CN(C)[C@@H](C(C)(C)C)N1C(=O)OC2c1ccccc1 (stereo partly specified)" reported_endpoint=GI50 result="> 100 µM (inactive)"
compound=CC(C)(NC1=NCCO1)c1ccccc1 reported_endpoint=GI50 result="> 100 µM (inactive)"

Consider the additional compound presented here.
Looking up CCOC(=O)C12C(=O)CCN1CCc1ccccc1C2C (stereo unspecified) , I see its GI50 listed as > 100 µM (inactive)

Just for reference, ChEMBL document CHEMBL1201862 is where these values come from.
